Source: PubChem BioAssay (NCI)

Exercise: for every item that follows, state its recorded TGI.
test system: SF-268 CNS; experiment: NCI tumour cell line growth inhibition, 48 h
Where a SMILES comes first, the peptide text is derived from it. [ ]: non-standard residue; d: D form. The star is where a group is joined. ξ: configuration not given here. ξNMeF = CNC(Cc1ccccc1)C(=O)O; NMeV = CN[C@H](C(=O)O)C(C)C; Boc = CC(C)(C)OC(=O)*; OBn = c1ccc(CO*)cc1

Hi there! I need TGI for each item below, if you can.
1. CN(C)NC(=O)/C(=C/c1ccc(Cl)cc1)NC(=O)c1ccccc1
2. CC(C)[C@@H](C(=O)N(C)[C@H](C(=O)N1CCC[C@H]1C(=O)OCc1ccccc1)C(C)C)N(C)C(=O)C(Cc1ccccc1)N(C)C(=O)[C@H](NC(=O)OC(C)(C)C)C(C)C (stereo partly drawn) (Boc-[dV][ξNMeF][NMeV][NMeV]P-OBn)
3. Cn1[nH]cc2ccc3nc4ccccc4c(=O)c3c21

["> 100 µM", "> 31.6 µM", "> 100 µM"]

====

system: OVCAR-8 ovarian; test: NCI tumour cell line growth inhibition, 48 h
endpointLabel: TGI

# example entries with known answers
CCOP(=O)(C/C=C/Cn1ncc(=O)[nH]c1=O)OCC | > 100 µM
CC(=O)[CH-]C(=O)c1ccccc1.CC(=O)[CH-]C(=O)c1ccccc1.Cl.[O-]c1ccnc2ccccc12.[O-]c1ccnc2ccccc12.[Ti+4] | > 100 µM
O/N=C(\CC(O)(C(F)(F)F)C(F)(F)F)c1cccs1 | > 10 µM
COc1cccc(Nc2ncnc3cc(NC(=O)CCl)ccc23)c1 | 5.16 µM
CC(O)CNC(=O)Nc1c(C(F)(F)F)cc(-c2ccccc2)[nH]c1=O (stereo not given) | > 100 µM

Answer for every listed entry: what is its TGI? The entries follow.
1. CCCCN=NNc1cn(C2OC(CO)C(O)C2O)c(=O)[nH]c1=O (stereo not given)
2. C=C1c2nc3ccccc3n2C=C(c2cccc(Cl)c2)N1Cc1ccc(OC)cc1
3. COC(=O)C1C(C(=O)O)C2(c3ccccc3)C(=O)C1(c1ccccc1)C(c1ccccc1)=C2c1ccccc1 (stereo not given)

1: > 100 µM; 2: > 57.3 µM; 3: 35.9 µM

# map each compound to its TGI
1. O=Cc1ccc2ccocc1-2
2. CSC1=NN(C(C)=O)C(C(OC(C)=O)C(OC(C)=O)C(OC(C)=O)C(COC(C)=O)OC(C)=O)S1 (stereo not given)

1. > 100 µM
2. > 100 µM

====

tested on: SF-268 CNS; test: NCI tumour cell line growth inhibition, 48 h
For each of the compounds below, state its TGI.

C=C1c2nc3ccccc3n2C=C(c2cccc(Cl)c2)N1Cc1ccc(OC)cc1 | > 57.2 µM

Hi there! I need TGI for each item below, if you can.
1. CCOC(=O)CN1C(=O)NC(C)(c2ccccc2)C1=O (configuration not stated)
2. C[N+](C)(C)CC(=O)N/N=C(\Cc1nc2ccc([N+](=O)[O-])cc2[nH]c1=O)C(=O)Nc1nc2ccc([N+](=O)[O-])cc2s1
3. Clc1cccc(-c2nc3cccc4c3n2Cc2ncccc2-4)c1
4. CC1(C)C(N2CCOCC2)CS1(=O)=O (configuration not stated)
5. Cc1ccc(/C=N/NC(=O)c2ccccc2Oc2ccccc2)o1
6. CCCCN=NNc1cn(C2OC(CO)C(O)C2O)c(=O)[nH]c1=O (configuration not stated)

1: > 100 µM; 2: > 100 µM; 3: > 100 µM; 4: > 10 µM; 5: > 100 µM; 6: > 100 µM
